System: SK-MEL-5 melanoma
PROTOCOL_NOTES: NCI tumour cell line growth inhibition, 48 h
# reported TGI; entries follow

[[record]]
compound = "C=C(Cl)C(=C)CCC(Cl)C(C)C (stereo not given)"
measurement_name = "TGI"
value_measured = "> 100 µM"

[[record]]
compound = "CCOC(=O)C1=C(C)N(NC(N)=O)C2(O)CCCC(=O)C12C (stereo not given)"
measurement_name = "TGI"
value_measured = "> 100 µM"

[[record]]
compound = "COc1cc(/C=C2/C(=O)N(C(=O)c3ccc(Cl)cc3)N=C2C)cc(OC)c1OC"
measurement_name = "TGI"
value_measured = "> 100 µM"

[[record]]
compound = "NNc1[nH]c(=S)[nH]c1C(N)=O"
measurement_name = "TGI"
value_measured = "> 100 µM"

[[record]]
compound = "Cc1c(C)c(S(=O)(=O)N(CCCN)OCCCN)c(C)c2c1OC(C)(C)C2"
measurement_name = "TGI"
value_measured = "> 100 µM"


Sample "O=C(NO)C(=O)Nc1ccc(Cl)cc1[N+](=O)[O-]" ; TGI observed: > 100 µM

Sample "COc1ccc(-c2cc(-c3cc(OC)c(OC)c(OC)c3)c(C#N)c(N3CCOCC3)n2)cc1O" ; TGI observed: > 75.2 µM

Sample "COc1ccc2c(c1)[n+](=O)c(C(=O)/C=C/c1cc(OC)c(OC)c(OC)c1)c(C)n2[O-]" ; TGI observed: > 100 µM

Sample "N[C@@H]1CCCN(c2c(/C=C3\SC(=O)NC3=O)cccc2-c2ccccc2)C1" ; TGI observed: 23.6 µM

Sample "O=C1CCc2c(sc3[nH]c(=S)n(Cc4ccccc4)c(=O)c23)C1" ; TGI observed: 3.74 µM

Sample "NC(=O)/C=C/NC(=O)/C=N\O" ; TGI observed: > 100 µM

Sample [N-]=[N+]=NC(CBr)c1cn([C@H]2C[C@H](O)[C@@H](CO)O2)c(=O)[nH]c1=O (stereo not given in full) ; TGI observed: > 100 µM

Entry source: PubChem BioAssay (NCI)
